- method_notes: Pharmacokinetics in mice
- Type: in vivo
- cond: female, BALB/cAnNCrl, mouse, plasma, iv, 2 mg/kg

# smiles_representation, clearance (mL/min)
records = [
    ("CSc1cc(Oc2ccnc3[nH]c(=O)cnc23)ccc1NC(=O)Nc1cc(C(C)(C)C)nn1-c1ccc(C)cc1", 0.00667),
]

----------
- target_or_system: MET (Homo sapiens, UniProt P08581)
pIC50: −log10 of the molar value.

# smiles_representation, pIC50
rows = [
    ("CSc1cc(Oc2ccnc3[nH]c(=O)cnc23)ccc1NC(=O)Nc1cc(C(C)(C)C)nn1-c1ccc(C)cc1", "< 5.00"),
]

----------
- target_or_system: LCK (Homo sapiens)
- Sequence (P06239 whole entry): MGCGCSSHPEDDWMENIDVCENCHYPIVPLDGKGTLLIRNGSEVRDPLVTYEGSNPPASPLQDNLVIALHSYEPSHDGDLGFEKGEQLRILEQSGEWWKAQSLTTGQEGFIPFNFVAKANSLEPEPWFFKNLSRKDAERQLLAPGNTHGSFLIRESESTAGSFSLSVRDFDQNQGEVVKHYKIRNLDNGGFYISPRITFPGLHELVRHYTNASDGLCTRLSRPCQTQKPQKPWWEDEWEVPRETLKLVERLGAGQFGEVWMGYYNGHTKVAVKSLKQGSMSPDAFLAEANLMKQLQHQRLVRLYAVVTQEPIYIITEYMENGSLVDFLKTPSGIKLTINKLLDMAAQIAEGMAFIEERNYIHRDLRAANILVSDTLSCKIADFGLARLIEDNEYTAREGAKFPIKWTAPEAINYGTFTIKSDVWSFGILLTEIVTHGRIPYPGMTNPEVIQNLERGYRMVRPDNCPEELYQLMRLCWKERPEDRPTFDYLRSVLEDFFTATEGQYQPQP

# smiles_representation, target_or_system, units_text, IC50
rows = [
    ("CSc1cc(Oc2ccnc3[nH]c(=O)cnc23)ccc1NC(=O)Nc1cc(C(C)(C)C)nn1-c1ccc(C)cc1", "LCK (Homo sapiens)", "nM", 6),
]

----------
- target_or_system: VEGFR1 (Homo sapiens, UniProt P17948)
- Sequence (P17948 27-1338): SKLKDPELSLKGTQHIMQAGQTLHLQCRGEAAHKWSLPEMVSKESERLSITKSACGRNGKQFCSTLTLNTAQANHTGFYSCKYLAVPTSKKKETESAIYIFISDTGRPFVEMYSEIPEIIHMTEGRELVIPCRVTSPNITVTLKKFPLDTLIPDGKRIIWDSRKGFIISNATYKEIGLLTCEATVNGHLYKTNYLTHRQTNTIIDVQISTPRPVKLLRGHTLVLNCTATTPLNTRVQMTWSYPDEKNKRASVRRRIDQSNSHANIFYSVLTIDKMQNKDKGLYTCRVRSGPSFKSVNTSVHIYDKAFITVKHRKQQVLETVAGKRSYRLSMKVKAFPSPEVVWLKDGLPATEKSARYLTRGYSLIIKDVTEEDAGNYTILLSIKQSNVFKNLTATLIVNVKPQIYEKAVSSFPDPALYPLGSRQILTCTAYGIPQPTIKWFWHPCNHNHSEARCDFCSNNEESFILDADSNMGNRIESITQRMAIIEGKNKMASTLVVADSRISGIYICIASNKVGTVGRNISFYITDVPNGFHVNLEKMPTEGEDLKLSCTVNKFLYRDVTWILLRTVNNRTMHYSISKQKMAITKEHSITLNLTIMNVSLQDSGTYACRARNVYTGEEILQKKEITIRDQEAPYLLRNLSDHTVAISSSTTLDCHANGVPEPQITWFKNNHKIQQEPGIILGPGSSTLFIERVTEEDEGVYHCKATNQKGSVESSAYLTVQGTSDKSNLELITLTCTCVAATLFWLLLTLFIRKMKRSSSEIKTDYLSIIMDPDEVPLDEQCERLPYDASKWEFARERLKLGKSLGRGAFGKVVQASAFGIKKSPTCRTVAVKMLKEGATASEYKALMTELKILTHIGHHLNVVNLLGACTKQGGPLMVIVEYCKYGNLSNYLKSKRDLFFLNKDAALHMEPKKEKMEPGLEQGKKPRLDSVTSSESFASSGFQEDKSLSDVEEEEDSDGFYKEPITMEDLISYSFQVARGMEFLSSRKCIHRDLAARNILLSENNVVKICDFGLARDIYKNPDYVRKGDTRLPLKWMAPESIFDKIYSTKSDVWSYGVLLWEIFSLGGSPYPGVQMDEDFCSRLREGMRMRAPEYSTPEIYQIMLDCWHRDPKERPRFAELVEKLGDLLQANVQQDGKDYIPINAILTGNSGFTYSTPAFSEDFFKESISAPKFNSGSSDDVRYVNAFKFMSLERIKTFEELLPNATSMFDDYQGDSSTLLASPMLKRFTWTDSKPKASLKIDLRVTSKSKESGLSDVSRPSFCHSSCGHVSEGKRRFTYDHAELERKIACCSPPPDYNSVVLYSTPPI
pIC50: −log10 of the molar value.
experimental_endpoint: pIC50

# smiles_representation, experimental_endpoint, result_value
data = [
    ("CSc1cc(Oc2ccnc3[nH]c(=O)cnc23)ccc1NC(=O)Nc1cc(C(C)(C)C)nn1-c1ccc(C)cc1", "pIC50", 5.29),
]

----------
Sequence of the target: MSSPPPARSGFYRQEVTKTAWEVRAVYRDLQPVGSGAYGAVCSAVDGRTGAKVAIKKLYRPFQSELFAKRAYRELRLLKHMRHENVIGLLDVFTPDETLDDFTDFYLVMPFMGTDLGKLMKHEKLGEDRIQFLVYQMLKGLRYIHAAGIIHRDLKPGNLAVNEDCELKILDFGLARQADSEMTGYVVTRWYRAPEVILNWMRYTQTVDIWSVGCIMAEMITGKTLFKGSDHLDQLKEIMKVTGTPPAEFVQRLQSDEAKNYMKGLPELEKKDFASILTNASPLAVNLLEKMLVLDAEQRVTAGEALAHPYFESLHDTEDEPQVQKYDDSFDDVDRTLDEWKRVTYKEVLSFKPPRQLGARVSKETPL
pIC50: −log10 of the molar value.

# smiles_representation, pIC50
measured = [
    ("CSc1cc(Oc2ccnc3[nH]c(=O)cnc23)ccc1NC(=O)Nc1cc(C(C)(C)C)nn1-c1ccc(C)cc1", 5.99),
]

----------
- target_or_system: UniProtKB P11362
- Sequence (P11362 22-822): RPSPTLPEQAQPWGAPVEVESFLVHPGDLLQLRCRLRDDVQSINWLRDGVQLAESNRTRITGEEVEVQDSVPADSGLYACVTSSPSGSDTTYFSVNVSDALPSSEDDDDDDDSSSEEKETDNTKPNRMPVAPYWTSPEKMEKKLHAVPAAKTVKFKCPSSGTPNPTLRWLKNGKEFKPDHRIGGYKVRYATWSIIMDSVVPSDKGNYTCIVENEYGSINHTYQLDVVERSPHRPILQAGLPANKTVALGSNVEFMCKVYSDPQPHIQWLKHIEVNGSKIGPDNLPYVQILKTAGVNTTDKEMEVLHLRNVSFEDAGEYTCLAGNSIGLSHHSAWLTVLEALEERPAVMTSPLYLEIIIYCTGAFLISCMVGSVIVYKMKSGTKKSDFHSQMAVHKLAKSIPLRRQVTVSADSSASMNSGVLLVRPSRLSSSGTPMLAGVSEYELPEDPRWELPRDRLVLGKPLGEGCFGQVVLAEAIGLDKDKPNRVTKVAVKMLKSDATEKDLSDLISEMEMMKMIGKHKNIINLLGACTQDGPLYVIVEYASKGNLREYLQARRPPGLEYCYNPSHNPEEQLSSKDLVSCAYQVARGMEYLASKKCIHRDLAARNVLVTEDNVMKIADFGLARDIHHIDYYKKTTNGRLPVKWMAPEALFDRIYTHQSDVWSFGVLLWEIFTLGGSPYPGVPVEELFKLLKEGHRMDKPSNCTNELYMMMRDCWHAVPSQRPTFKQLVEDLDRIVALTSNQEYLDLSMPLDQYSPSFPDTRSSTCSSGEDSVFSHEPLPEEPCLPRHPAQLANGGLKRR
- method_notes: Z'-LYTE SelectScreen kinase profiling
- Type: biochemical
pIC50: −log10 of the molar value.

# smiles_representation, target_or_system, pIC50
rows = [
    ("CSc1cc(Oc2ccnc3[nH]c(=O)cnc23)ccc1NC(=O)Nc1cc(C(C)(C)C)nn1-c1ccc(C)cc1", "UniProtKB P11362", 5.59),
]

----------
- target_or_system: VEGFR2 (Homo sapiens)
- Sequence (P35968 20-1356): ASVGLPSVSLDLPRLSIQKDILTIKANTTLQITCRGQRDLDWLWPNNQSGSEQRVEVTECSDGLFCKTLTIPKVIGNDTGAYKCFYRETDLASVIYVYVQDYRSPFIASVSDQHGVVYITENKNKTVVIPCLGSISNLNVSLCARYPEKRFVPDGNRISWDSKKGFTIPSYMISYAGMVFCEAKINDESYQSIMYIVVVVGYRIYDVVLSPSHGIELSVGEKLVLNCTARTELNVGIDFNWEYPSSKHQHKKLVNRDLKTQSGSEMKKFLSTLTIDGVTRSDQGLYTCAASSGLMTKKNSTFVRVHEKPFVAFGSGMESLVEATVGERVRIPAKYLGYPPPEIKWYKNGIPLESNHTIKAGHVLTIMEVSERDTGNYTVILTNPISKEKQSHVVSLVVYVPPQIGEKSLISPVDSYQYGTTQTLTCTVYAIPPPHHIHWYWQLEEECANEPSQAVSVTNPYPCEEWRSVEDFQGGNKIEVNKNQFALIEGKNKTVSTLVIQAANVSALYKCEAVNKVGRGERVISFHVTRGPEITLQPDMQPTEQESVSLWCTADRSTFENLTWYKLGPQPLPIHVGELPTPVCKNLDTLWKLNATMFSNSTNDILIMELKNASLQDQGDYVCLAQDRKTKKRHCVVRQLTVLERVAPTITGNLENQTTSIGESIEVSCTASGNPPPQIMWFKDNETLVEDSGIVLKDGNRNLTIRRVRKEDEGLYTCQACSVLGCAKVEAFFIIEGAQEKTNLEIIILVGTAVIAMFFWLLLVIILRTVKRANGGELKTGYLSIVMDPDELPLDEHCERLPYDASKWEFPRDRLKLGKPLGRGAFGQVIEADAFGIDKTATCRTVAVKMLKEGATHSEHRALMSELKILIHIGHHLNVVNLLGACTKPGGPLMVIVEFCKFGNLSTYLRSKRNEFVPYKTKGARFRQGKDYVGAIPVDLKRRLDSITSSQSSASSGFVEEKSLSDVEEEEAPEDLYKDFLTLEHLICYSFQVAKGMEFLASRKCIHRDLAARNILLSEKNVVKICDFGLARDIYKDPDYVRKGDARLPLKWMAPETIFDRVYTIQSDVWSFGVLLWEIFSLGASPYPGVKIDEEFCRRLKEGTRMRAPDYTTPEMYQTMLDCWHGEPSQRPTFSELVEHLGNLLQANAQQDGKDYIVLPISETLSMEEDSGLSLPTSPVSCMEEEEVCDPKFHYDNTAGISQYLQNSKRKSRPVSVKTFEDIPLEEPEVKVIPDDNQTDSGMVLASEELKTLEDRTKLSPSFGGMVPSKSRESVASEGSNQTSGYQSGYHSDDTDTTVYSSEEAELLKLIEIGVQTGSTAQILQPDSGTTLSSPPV
pIC50: −log10 of the molar value.

# smiles_representation, pIC50
measured = [
    ("CSc1cc(Oc2ccnc3[nH]c(=O)cnc23)ccc1NC(=O)Nc1cc(C(C)(C)C)nn1-c1ccc(C)cc1", 6.00),
]

----------
- method_notes: Pharmacokinetics in mice
- Type: in vivo
- cond: female, BALB/cAnNCrl, mouse, plasma, iv, 2 mg/kg
experimental_endpoint: half-life (h)

# smiles_representation, experimental_endpoint, units_text, result_value
records = [
    ("CSc1cc(Oc2ccnc3[nH]c(=O)cnc23)ccc1NC(=O)Nc1cc(C(C)(C)C)nn1-c1ccc(C)cc1", "half-life", "h", 6.8),
]

----------
- target_or_system: KIT (Homo sapiens)
pIC50: −log10 of the molar value.
experimental_endpoint: pIC50

# compound, result_value
data = [
    ("CSc1cc(Oc2ccnc3[nH]c(=O)cnc23)ccc1NC(=O)Nc1cc(C(C)(C)C)nn1-c1ccc(C)cc1 [Compound 1t]", "< 5.00"),
]

----------
- method_notes: Pharmacokinetics in mice
- Format: in vivo
- cond: female, BALB/cAnNCrl, mouse, plasma, po, 10 mg/kg

# compound, concentration at 18 h
rows = [
    ("CSc1cc(Oc2ccnc3[nH]c(=O)cnc23)ccc1NC(=O)Nc1cc(C(C)(C)C)nn1-c1ccc(C)cc1 [Compound 1t]", "> 19 µM"),
]

----------
- target_or_system: PDGFRβ (Homo sapiens)

# smiles_representation, IC50 / nM
rows = [
    ("CSc1cc(Oc2ccnc3[nH]c(=O)cnc23)ccc1NC(=O)Nc1cc(C(C)(C)C)nn1-c1ccc(C)cc1", 2430),
]

----------
- target_or_system: RET (Homo sapiens, UniProt P07949)

# smiles_representation, IC50
measured = [
    ("CSc1cc(Oc2ccnc3[nH]c(=O)cnc23)ccc1NC(=O)Nc1cc(C(C)(C)C)nn1-c1ccc(C)cc1", "4.86 µM"),
]

----------
- target_or_system: CRAF (Homo sapiens, UniProt P04049, Y340D/Y341D)
- method_notes: Z'-LYTE SelectScreen kinase profiling
experimental_endpoint: IC50 (µM)

# smiles_representation, units_text, result_value
data = [
    ("CSc1cc(Oc2ccnc3[nH]c(=O)cnc23)ccc1NC(=O)Nc1cc(C(C)(C)C)nn1-c1ccc(C)cc1", "µM", 0.012),
]

----------
- target_or_system: BRAF (Homo sapiens, UniProt P15056)
- Sequence (P15056 whole entry): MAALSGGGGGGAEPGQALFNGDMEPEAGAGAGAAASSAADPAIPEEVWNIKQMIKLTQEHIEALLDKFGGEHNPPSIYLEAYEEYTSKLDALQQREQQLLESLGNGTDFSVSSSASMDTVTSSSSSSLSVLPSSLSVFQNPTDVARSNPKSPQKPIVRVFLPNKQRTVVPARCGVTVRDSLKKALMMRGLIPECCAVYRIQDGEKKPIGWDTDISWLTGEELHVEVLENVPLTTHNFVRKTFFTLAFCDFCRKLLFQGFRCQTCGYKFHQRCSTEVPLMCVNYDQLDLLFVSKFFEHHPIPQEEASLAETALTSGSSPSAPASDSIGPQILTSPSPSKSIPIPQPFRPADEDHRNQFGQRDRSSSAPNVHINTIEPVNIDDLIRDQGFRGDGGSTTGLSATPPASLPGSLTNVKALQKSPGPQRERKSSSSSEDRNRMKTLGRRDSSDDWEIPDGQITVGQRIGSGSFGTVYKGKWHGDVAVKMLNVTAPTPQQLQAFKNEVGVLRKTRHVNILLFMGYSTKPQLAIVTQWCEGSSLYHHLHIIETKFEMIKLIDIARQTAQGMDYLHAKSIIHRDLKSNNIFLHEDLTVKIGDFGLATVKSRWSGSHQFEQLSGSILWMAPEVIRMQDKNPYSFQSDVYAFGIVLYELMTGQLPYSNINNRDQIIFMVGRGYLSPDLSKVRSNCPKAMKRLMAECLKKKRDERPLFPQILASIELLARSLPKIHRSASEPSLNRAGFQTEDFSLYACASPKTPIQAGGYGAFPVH
- method_notes: Z'-LYTE SelectScreen kinase profiling
- Format: biochemical
experimental_endpoint: IC50 (nM)

# smiles_representation, result_value
rows = [
    ("CSc1cc(Oc2ccnc3[nH]c(=O)cnc23)ccc1NC(=O)Nc1cc(C(C)(C)C)nn1-c1ccc(C)cc1", 81),
]

----------
- target_or_system: PDGFRα (Homo sapiens)
pIC50: −log10 of the molar value.
experimental_endpoint: pIC50

# smiles_representation, result_value
rows = [
    ("CSc1cc(Oc2ccnc3[nH]c(=O)cnc23)ccc1NC(=O)Nc1cc(C(C)(C)C)nn1-c1ccc(C)cc1", 6.36),
]

----------
- target_or_system: ^V600EBRAF (Homo sapiens, UniProt P15056, V600E)
- Sequence (P15056 whole entry V600E): as the sequence (P15056 whole entry) above, with V600E counted along it
- method_notes: Z'-LYTE SelectScreen kinase profiling
pIC50: −log10 of the molar value.
experimental_endpoint: pIC50

# compound, result_value
records = [
    ("CSc1cc(Oc2ccnc3[nH]c(=O)cnc23)ccc1NC(=O)Nc1cc(C(C)(C)C)nn1-c1ccc(C)cc1 [Compound 1t]", 7.89),
]

----------
- target_or_system: COT (Homo sapiens)
experimental_endpoint: IC50

# smiles_representation, result_value
rows = [
    ("CSc1cc(Oc2ccnc3[nH]c(=O)cnc23)ccc1NC(=O)Nc1cc(C(C)(C)C)nn1-c1ccc(C)cc1", "> 10 µM"),
]

----------
- method_notes: Pharmacokinetics in mice
- Assay type: in vivo
- cond: female, BALB/cAnNCrl, mouse, femoral muscle, po, 10 mg/kg

# compound, concentration at 18 h
records = [
    ("CSc1cc(Oc2ccnc3[nH]c(=O)cnc23)ccc1NC(=O)Nc1cc(C(C)(C)C)nn1-c1ccc(C)cc1 [Compound 1t]", "> 3000 nM"),
]
